System: DU-145
test protocol: Sytox screen, tumor cell line panel
Assay type: cell-based
measurement parameters: Homo sapiens, Prostate, Wt ras, read-out: IC 50, DU-145
pIC50: −log10 of the molar value.
value type: pIC50

                                    smiles  result_value
0  CCOc1ccccc1-n1c(CN2CCNCC2)nc2ccccc2c1=O        ≤ 7.00

###

System: SK-MEL-5
test protocol: Sytox screen, tumor cell line panel
Assay type: cell-based
measurement parameters: Homo sapiens, Melanoma, B-raf V600E mut heterozygote, read-out: IC 50, SK-MEL-5
pIC50: −log10 of the molar value.
value type: pIC50

In [3]: df
Out[3]:
                                   compound  assay_system  value_type  result_value
0  CCOc1ccccc1-n1c(CN2CCNCC2)nc2ccccc2c1=O [Compound 5]      SK-MEL-5       pIC50        ≤ 7.00

###

Test system: PC-3
test protocol: Sytox screen, tumor cell line panel
Format: cell-based
measurement parameters: Homo sapiens, Prostate, read-out: IC 50, PC-3
value type: IC50

In [3]: df
Out[3]:
                                    smiles  assay_system  result_value
0  CCOc1ccccc1-n1c(CN2CCNCC2)nc2ccccc2c1=O          PC-3     ≥ 1000 nM
